Molecular target: AR in LNCaP cytosol (Homo sapiens, UniProt P10275, T878A)
Construct: endogenous in cells; host or cells: LNCaP cytosol
Sequence (P10275 whole entry T878A): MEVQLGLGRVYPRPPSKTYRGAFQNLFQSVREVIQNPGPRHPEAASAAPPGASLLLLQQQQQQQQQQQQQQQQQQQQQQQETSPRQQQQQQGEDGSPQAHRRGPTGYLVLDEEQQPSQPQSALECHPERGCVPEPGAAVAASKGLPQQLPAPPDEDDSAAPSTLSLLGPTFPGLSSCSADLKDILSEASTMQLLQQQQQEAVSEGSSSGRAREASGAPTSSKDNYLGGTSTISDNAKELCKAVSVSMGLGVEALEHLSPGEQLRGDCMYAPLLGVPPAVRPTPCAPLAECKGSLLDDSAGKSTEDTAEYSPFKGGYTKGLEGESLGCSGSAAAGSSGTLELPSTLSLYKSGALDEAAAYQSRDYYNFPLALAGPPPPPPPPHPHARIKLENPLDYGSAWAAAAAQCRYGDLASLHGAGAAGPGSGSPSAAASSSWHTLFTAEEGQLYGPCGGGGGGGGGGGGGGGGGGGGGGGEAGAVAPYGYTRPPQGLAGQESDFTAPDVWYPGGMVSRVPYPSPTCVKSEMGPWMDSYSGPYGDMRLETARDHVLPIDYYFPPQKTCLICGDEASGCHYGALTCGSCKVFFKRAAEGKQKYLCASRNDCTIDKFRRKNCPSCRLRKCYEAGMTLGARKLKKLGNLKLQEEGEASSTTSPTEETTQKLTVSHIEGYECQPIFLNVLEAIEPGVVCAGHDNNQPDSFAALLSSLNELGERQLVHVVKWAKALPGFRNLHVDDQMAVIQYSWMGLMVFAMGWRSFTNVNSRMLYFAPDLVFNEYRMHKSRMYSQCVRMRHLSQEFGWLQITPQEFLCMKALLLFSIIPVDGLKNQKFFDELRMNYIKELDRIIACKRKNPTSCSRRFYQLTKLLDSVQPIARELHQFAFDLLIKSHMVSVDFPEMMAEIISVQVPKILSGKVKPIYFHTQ
Test: AR binding assay (3H-methyltrienolone displacement)
Settings: Ki=IC50/(1+[L]/Kd), [L] 1 nM, Kd 0.332 nM; read-out: AR Ki
Measured Property: pKi
# log scale: pKi equals minus log10 of the concentration in mol/L

Compound	Measured Property	Numeric Value
C[C@]12CCC(=O)C[C@@H]1CC[C@@H]1[C@@H]2CC[C@]2(C)[C@@H](OCCOCC(=O)N3CCN(C(=O)c4cc(Cc5n[nH]c(=O)c6ccccc56)ccc4F)CC3)CC[C@@H]12 [Compound 1.104]	pKi	6.78

For the next question, use this compound.
Quick check: pKi of C[C@]12CCC(=O)C[C@@H]1CC[C@@H]1[C@@H]2CC[C@@]2(C)[C@H]1CC[C@@]2(O)C#CC(=O)N1CCN(C(=O)c2cc(Cc3n[nH]c(=O)c4ccccc34)ccc2F)CC1 [Compound 1.116] ?
5.30

====

Biological target: Human recombinant PARP1 (Homo sapiens, UniProt P09874)
Sequence (P09874 whole entry): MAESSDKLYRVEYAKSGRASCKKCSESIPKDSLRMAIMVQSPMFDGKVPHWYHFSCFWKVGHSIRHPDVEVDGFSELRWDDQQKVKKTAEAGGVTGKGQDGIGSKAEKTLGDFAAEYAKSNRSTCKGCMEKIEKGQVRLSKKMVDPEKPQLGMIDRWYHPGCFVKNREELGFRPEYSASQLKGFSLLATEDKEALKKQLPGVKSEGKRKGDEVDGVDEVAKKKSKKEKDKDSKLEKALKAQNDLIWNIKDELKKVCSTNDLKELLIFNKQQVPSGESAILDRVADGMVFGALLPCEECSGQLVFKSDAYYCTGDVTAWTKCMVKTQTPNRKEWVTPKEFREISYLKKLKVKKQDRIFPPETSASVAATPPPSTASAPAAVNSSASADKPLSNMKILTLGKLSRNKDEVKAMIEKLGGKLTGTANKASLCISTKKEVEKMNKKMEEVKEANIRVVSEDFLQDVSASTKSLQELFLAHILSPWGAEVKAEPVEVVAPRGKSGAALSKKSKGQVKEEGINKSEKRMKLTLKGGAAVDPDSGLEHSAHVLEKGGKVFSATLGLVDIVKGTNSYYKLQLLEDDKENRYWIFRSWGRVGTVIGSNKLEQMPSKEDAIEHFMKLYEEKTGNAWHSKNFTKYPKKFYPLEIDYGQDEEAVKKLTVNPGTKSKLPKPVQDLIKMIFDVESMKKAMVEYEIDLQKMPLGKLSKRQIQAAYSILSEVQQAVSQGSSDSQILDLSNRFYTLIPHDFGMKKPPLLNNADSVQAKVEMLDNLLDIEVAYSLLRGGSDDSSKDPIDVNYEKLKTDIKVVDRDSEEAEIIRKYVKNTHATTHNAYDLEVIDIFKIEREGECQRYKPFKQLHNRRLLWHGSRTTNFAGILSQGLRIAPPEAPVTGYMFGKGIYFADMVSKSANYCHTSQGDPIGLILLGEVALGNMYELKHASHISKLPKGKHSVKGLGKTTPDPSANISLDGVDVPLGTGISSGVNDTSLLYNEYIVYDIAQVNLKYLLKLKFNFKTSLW
Assay: RBC HotSpot PARP1 radioisotope-based filter binding assay
Type: biochemical
Conditions: 2.5 nM enzyme, histone H4, 10 μM 32P-NAD+; read-out: PARP1 IC50
Measured Property: IC50 (nM)
Numbers only here, please. The scale is nM.

Checklist item: IC50 tested on Human recombinant PARP1 (Homo sapiens, UniProt P09874), entry CCC(=C(c1ccc(O)cc1)c1ccc(OCCN2CCN(C(=O)c3cc(Cc4n[nH]c(=O)c5ccccc45)ccc3F)CC2)cc1)c1ccccc1 , value?
274

Checklist item: IC50 tested on Human recombinant PARP1 (Homo sapiens, UniProt P09874), entry C[C@]12CCC(=O)C[C@@H]1CC[C@@H]1[C@@H]2CC[C@@]2(C)[C@H]1CC[C@@]2(O)c1cn(CC(=O)N2CCN(C(=O)c3cc(Cc4n[nH]c(=O)c5ccccc45)ccc3F)CC2)nn1 , value?
0.3

Checklist item: IC50 tested on Human recombinant PARP1 (Homo sapiens, UniProt P09874), entry C[C@](O)(COc1ccc(NCCCCCC(=O)N2CCN(C(=O)c3cc(Cc4n[nH]c(=O)c5ccccc45)ccc3F)CC2)cc1)C(=O)Nc1ccc(C#N)c(C(F)(F)F)c1 , value?
0.7

Checklist item: IC50 tested on Human recombinant PARP1 (Homo sapiens, UniProt P09874), entry C[C@]12CCC(=O)C[C@@H]1CC[C@@H]1[C@@H]2CC[C@]2(C)[C@@H](OCCOCC(=O)N3CCN(C(=O)c4cc(Cc5n[nH]c(=O)c6ccccc56)ccc4F)CC3)CC[C@@H]12 , value?
1.2

Checklist item: IC50 tested on Human recombinant PARP1 (Homo sapiens, UniProt P09874), entry C[C@]12CCC(=O)C[C@@H]1CC[C@@H]1[C@@H]2CC[C@@]2(C)[C@H]1CC[C@@]2(O)CCC(=O)N1CCN(C(=O)c2cc(Cc3n[nH]c(=O)c4ccccc34)ccc2F)CC1 (stereo in doubt) , value?
0.3

====

Molecular target: Human recombinant PARP2 (Homo sapiens)
Sequence (Q9UGN5 whole entry): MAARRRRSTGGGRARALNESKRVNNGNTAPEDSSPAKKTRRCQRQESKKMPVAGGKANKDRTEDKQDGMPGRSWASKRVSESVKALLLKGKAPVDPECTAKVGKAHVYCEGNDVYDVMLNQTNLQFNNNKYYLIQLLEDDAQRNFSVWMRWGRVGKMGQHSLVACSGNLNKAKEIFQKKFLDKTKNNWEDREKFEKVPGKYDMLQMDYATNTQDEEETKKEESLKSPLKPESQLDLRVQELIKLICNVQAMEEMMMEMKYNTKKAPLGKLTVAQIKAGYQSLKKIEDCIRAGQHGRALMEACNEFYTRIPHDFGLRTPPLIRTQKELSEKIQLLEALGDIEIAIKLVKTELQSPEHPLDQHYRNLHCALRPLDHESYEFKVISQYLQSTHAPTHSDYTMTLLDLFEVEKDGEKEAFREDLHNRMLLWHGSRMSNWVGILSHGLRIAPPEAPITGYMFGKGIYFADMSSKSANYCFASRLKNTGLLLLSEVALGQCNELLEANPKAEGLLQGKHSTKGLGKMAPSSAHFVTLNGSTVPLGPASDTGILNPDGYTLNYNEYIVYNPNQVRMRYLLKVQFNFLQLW
Assay: RBC HotSpot PARP2 radioisotope-based filter binding assay
Type: biochemical
Conditions: 2.5 nM enzyme, histone H3, 10 μM 32P-NAD+; read-out: PARP2 IC50
Listed below: log10(IC50) values for each entry.
Values below are the log10 of the recorded IC50, with nM as the unit.

# count of solved cases: 3
Molecule	Test Target	Numeric Value
Cn1ncnc1[C@H]1c2n[nH]c(=O)c3cc(F)cc(c23)N[C@@H]1c1ccc(NC(=O)CCCCCO[C@H]2CC[C@H]3[C@@H]4CC[C@H]5CC(=O)CC[C@]5(C)[C@H]4CC[C@]23C)cc1 [Compound 1.4]	Human recombinant PARP2 (Homo sapiens)	-0.40
C[C@]12CCC(=O)C[C@@H]1CC[C@@H]1[C@@H]2CC[C@@]2(C)[C@H]1CC[C@@]2(O)C#CCN1CCN(C(=O)c2cc(Cc3n[nH]c(=O)c4ccccc34)ccc2F)CC1 [Compound 1.118]	Human recombinant PARP2 (Homo sapiens)	0.00
C[C@]12CCC(=O)C[C@@H]1CC[C@@H]1[C@@H]2CC[C@@]2(C)[C@H]1CC[C@@]2(O)CCC(=O)N1CCN(C(=O)c2cc(Cc3n[nH]c(=O)c4ccccc34)ccc2F)CC1 (stereo in doubt) [Compound 1.117]	Human recombinant PARP2 (Homo sapiens)	-1.00

For the next question, use this molecule.
Quick check: log10(IC50) of C[C@]12CCC(=O)C[C@@H]1CC[C@@H]1[C@@H]2CC[C@]2(C)[C@@H](OCCCCCC(=O)N3CCN(C(=O)c4cc(Cc5n[nH]c(=O)c6ccccc56)ccc4F)CC3)CC[C@@H]12 [Compound 1.2] ?
-0.70

====

Molecular target: Human recombinant PARP1 (Homo sapiens, UniProt P09874)
Assay: RBC HotSpot PARP1 radioisotope-based filter binding assay
Type: biochemical
Conditions: 2.5 nM enzyme, histone H4, 10 μM 32P-NAD+; read-out: PARP1 IC50
Measured Property: IC50 (nM)
Numbers only here, please. The scale is nM.

# count of solved cases: 2
C[C@]12CCC(=O)C[C@@H]1CC[C@@H]1[C@@H]2CC[C@@]2(C)[C@H]1CC[C@@]2(O)C#CC(=O)N1CCN(C(=O)c2cc(Cc3n[nH]c(=O)c4ccccc34)ccc2F)CC1 0.5
C[C@]12CCC(F)(F)C[C@@H]1CC[C@@H]1[C@@H]2CC[C@]2(C)[C@@H](OCCCCCC(=O)N3CCN(C(=O)c4cc(Cc5n[nH]c(=O)c6ccccc56)ccc4F)CC3)CC[C@@H]12 27.9

Quick check: IC50 of C[C@]12CCC(=O)C[C@@H]1CC[C@@H]1[C@@H]2CC[C@]2(C)[C@@H](OCCCCCC(=O)N3CCN(C(=O)c4cc(Cc5n[nH]c(=O)c6ccccc56)ccc4F)CC3)CC[C@@H]12 ?
3

====

Target: Human recombinant PARP1 (Homo sapiens)
Assay: RBC HotSpot PARP1 radioisotope-based filter binding assay
Type: biochemical
Conditions: 2.5 nM enzyme, histone H4, 10 μM 32P-NAD+; read-out: PARP1 IC50
satisfied if IC50 is below 3 nM. not satisfied if not; exact matches included in not satisfied.

The examples below pair each entry with its known result.
Molecule	Label Class
CN(CCCCCC(=O)N1CCN(C(=O)c2cc(Cc3n[nH]c(=O)c4ccccc34)ccc2F)CC1)CCOc1ccc(C(=O)c2c(-c3ccc(O)cc3)sc3cc(O)ccc23)cc1 [Compound 2.4]	not satisfied
C[C@]12CCC(=O)C[C@@H]1CC[C@@H]1[C@@H]2CC[C@@]2(C)[C@H]1CC[C@@]2(O)CCCN1CCN(C(=O)c2cc(Cc3n[nH]c(=O)c4ccccc34)ccc2F)CC1 [Compound 1.119]	satisfied
Cn1ncnc1[C@@H]1c2n[nH]c(=O)c3cc(F)cc(c23)N[C@H]1c1ccc(NC(=O)CCCCCNC(=O)c2ccc(N3C(=S)N(c4ccc(C#N)c(C(F)(F)F)c4)C(=O)C3(C)C)cc2F)cc1 [ent-1.3]	not satisfied
O=C(c1ccc(OCCN2CCN(C(=O)c3cc(Cc4n[nH]c(=O)c5ccccc45)ccc3F)CC2)cc1)c1c(-c2ccc(O)cc2)sc2cc(O)ccc12 [Compound 2.13]	not satisfied

Input C[C@]12CCC(=O)C[C@@H]1CC[C@@H]1[C@@H]2CC[C@@]2(C)[C@H]1CC[C@@]2(O)C#CCN1CCN(C(=O)c2cc(Cc3n[nH]c(=O)c4ccccc34)ccc2F)CC1 [Compound 1.118] ; condition: IC50 strictly below 3 nM. Does it hold?
not satisfied

====

Target: Human recombinant PARP1 (Homo sapiens)
Test: RBC HotSpot PARP1 radioisotope-based filter binding assay
Type: biochemical
pIC50: −log10 of the molar value.
Decision: pIC50 >= 9 yields true (1), all other cases yield false (0).

The examples below pair each entry with its known result.
Compound	Test Target	Label Class
CC1(C)C(=O)N(c2ccc(C#N)c(C(F)(F)F)c2)C(=S)N1c1ccc(C(=O)NCCCCCCNCc2ccc(-c3[nH]c4cc(F)cc5c4c3CCNC5=O)cc2)c(F)c1 [Compound 1.5]	Human recombinant PARP1 (Homo sapiens)	false (0)
C[C@](O)(CS(=O)(=O)c1ccc(NCC(=O)N2CCN(C(=O)c3cc(Cc4n[nH]c(=O)c5ccccc45)ccc3F)CC2)cc1)C(=O)Nc1ccc(C#N)c(C(F)(F)F)c1 [Compound 1.98]	Human recombinant PARP1 (Homo sapiens)	true (1)
CC(O)(CS(=O)(=O)c1ccc(NCCn2cc(CN3CCN(C(=O)c4cc(Cc5n[nH]c(=O)c6ccccc56)ccc4F)CC3)nn2)cc1)C(=O)Nc1ccc(C#N)c(C(F)(F)F)c1 (stereo in doubt) [Compound 1.97]	Human recombinant PARP1 (Homo sapiens)	false (0)
CC1(C)C(=O)N(c2ccc(C#N)c(C(F)(F)F)c2)C(=S)N1c1ccc(C(=O)NCCCCCC(=O)N2CCN(C(=O)c3cc(Cc4n[nH]c(=O)c5ccccc45)ccc3F)CC2)c(F)c1 [Compound 1.1]	Human recombinant PARP1 (Homo sapiens)	false (0)

Please find the next compound below.
Can C[C@](O)(CS(=O)(=O)c1ccc(NCCCCCC(=O)N2CCN(C(=O)c3cc(Cc4n[nH]c(=O)c5ccccc45)ccc3F)CC2)cc1)C(=O)Nc1ccc(C#N)c(C(F)(F)F)c1 [Compound 1.68] be said to have pIC50 at or above 9?
true (1)
